Collected Kd values appear next to each entry.
Target: T1, cynomolgus monkey MerTK (cynomolgus monkey, UniProt A0A2K5V1H9 32-505)
T1 construct: Soluble analyte in SPR; also called Cyno MerTK
T1 sequence: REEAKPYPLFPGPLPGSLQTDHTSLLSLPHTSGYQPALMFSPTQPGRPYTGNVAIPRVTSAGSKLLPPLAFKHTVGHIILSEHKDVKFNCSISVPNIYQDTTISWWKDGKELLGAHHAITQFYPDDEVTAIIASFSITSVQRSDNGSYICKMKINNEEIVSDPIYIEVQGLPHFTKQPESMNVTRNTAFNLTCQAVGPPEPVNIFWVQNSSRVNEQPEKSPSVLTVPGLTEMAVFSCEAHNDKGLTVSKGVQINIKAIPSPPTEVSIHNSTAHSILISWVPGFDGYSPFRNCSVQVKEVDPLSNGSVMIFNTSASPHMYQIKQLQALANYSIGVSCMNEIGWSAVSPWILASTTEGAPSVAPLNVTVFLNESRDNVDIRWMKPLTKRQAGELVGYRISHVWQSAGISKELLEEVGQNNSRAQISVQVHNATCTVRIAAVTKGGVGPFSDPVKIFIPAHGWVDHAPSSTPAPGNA
Assay: SPR BIAcore T200, Ab captured, 37C
Return type: number; implicit unit nM.

Please review the following examples before continuing.
Q: Item Rbt10F7 (antibody, V domains shown, Recombinant rabbit monoclonal antibody, Expi293, protein A purified) VH: QSVEESGGRLVTPGTPLTLTCTVSGFSLSGYAMSWVRQAPGKGLEYIGVISSSGSSYYPSWAKGRFTISKTSTTVDLQITSPTTEDTATYFCARVQFYVGYAVYGYGIIDRLDLWGQGTLVTVSS VL: AAVLTQTPSPVSATMGGTVSISCQSSKSVYNNNWLSWYQQKPGQPPKLLIYRASTLESGVPSRFKGSGSGTQFTLTISDVHCDDAATYFCAGGYSSSSSANAFGGGTEVVVK has what recorded Kd?
A: 5.1

Q: Item h13B4.v1 (antibody, V domains shown, also called h13B4.V1 (Parent); 13B4 Humanized mAb V1) VH: EQQLVESGEGLVQPGGSLRLSCAVSGFSLSSYAMGWVRQAPGKGLEWIGIINSYGNTYYANWAKGRFTISRDSSKNTVYLQMGSLRAEDMAVYFCARDPGVSSNLWGPGTLVTVSS VL: DVQMTQSPSTLSASVGDRVTITCQASQNIYSGLAWYQQKPGKPPKLLIYGASKLASGVPSRFSGSGSGTEFTLTISSLQPDDFATYYCQATYYSSNSVAFGGGTKVEIK has what recorded Kd?
A: 5.6

Next binder, please.
Q: Item h10C3.v14 (antibody, V domains shown, Humanized, human IgG1; also called 10C3 Humanized polished mAb) VH: EVQLVESGGGLVQPGGSLRLSCAASGFSLSGYTMGWVRQAPGKGLEYIGVISSGGTTYYTNWAKGRFTISKDNSKNTLYLQMGSLRAEDMAVYYCARVAFTAYGGGGFPTLHRLDLWGQGTLVTVSS VL: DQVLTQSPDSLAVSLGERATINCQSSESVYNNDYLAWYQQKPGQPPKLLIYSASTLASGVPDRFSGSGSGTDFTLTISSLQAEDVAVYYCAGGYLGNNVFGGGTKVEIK has what recorded Kd?
A: 3.2
